Value source: ChEMBL document CHEMBL1759974

Target: Phosphatidylinositol 4,5-bisphosphate 3-kinase catalytic subunit gamma isoform (Homo sapiens)
Sequence (P48736 whole entry, canonical isoform): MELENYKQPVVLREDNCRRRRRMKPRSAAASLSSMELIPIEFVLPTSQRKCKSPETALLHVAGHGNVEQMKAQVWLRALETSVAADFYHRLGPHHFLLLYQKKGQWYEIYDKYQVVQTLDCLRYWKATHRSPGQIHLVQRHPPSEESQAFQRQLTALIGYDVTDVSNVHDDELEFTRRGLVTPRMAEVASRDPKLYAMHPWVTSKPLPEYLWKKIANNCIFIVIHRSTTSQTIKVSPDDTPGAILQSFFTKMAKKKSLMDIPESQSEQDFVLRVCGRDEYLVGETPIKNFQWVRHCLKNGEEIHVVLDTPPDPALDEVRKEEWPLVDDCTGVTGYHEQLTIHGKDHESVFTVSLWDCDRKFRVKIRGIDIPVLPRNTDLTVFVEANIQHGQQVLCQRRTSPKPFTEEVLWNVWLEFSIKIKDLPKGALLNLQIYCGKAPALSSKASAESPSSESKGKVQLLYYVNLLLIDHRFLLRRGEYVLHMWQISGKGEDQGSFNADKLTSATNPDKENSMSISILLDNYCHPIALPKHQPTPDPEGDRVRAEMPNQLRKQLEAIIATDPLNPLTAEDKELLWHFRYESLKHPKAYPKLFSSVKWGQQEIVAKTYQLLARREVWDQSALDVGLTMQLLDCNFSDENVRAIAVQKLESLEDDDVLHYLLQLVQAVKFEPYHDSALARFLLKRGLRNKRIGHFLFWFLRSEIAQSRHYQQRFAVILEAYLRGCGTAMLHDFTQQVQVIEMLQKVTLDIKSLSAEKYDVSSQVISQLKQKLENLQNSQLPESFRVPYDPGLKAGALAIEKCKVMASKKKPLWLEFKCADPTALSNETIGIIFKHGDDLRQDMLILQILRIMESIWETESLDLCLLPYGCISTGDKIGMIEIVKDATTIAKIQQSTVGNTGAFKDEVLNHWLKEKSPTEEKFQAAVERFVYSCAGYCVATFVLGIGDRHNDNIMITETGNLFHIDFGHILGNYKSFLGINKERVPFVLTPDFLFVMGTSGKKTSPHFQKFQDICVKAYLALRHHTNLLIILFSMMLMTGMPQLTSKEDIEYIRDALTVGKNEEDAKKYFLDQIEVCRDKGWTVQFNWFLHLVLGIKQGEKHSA
Entries and their IC50
Dear colleague, please return just the value in nM, with no unit written.

Q) Input Cc1nc(N)nc(-n2c(Nc3ccn(C)n3)nc3ccccc32)n1 , output reported IC50.
A) 4100

Q) Input Cc1nc(N)nc(-n2c(Nc3ccc4cc[nH]c4c3)nc3ccccc32)n1 , output reported IC50.
A) 340

Q) Input CNc1nc(C)nc(-n2c(Nc3cc[nH]n3)nc3ccccc32)n1 , output reported IC50.
A) 3200

Others:
Q) Input CC(=O)Nc1cccc(Nc2nc3ccccc3n2-c2nc(C)nc(N)n2)c1 , output reported IC50.
A) 110

Q) Input CNC(=O)Nc1ccc(Nc2nc3ccccc3n2-c2nc(C)nc(N)n2)cc1 , output reported IC50.
A) 13

* * *

Molecular target: Serine/threonine-protein kinase mTOR (Homo sapiens)
readout-name: pIC50
Scale explanation: pIC50 corresponds to minus log10 of a concentration expressed in moles per litre.

Recorded results for 4 compounds are shown here.
Q) Input Cc1nc(N)nc(-n2c(Nc3ccn[nH]3)nc3cc(F)c(F)cc32)n1 , output reported pIC50.
A) 7.35

Q) Input Cc1nc(NCC#N)nc(-n2c(Nc3cccc(O)c3)nc3ccccc32)n1 , output reported pIC50.
A) 7.77

Q) Input Oc1cccc(Nc2nc3ccccc3n2-c2ncncn2)c1 , output reported pIC50.
A) 5.80

Q) Input Cc1nc(N)nc(-n2c(Nc3ccon3)nc3ccccc32)n1 , output reported pIC50.
A) 6.59

Others:
Q) Input Cc1nc(NCC#N)nc(-n2c(Nc3ccn[nH]3)nc3ccccc32)n1 , output reported pIC50.
A) 7.14

Q) Input Cc1nc(N)nc(-n2c(Nc3nc[nH]n3)nc3ccccc32)n1 , output reported pIC50.
A) 5.34

Q) Input CNc1nc(C)nc(-n2c(Nc3cc[nH]n3)nc3ccccc32)n1 , output reported pIC50.
A) 7.00

Q) Input CNc1ncnc(-n2c(Nc3cccc(O)c3)nc3ccccc32)n1 , output reported pIC50.
A) 6.74

Q) Input C#CCNc1nc(C)nc(-n2c(Nc3ccn[nH]3)nc3ccccc32)n1 , output reported pIC50.
A) 6.82

* * *

Target: Phosphatidylinositol 4,5-bisphosphate 3-kinase catalytic subunit beta isoform (Homo sapiens, UniProt P42338)
Sequence (P42338 whole entry, canonical isoform): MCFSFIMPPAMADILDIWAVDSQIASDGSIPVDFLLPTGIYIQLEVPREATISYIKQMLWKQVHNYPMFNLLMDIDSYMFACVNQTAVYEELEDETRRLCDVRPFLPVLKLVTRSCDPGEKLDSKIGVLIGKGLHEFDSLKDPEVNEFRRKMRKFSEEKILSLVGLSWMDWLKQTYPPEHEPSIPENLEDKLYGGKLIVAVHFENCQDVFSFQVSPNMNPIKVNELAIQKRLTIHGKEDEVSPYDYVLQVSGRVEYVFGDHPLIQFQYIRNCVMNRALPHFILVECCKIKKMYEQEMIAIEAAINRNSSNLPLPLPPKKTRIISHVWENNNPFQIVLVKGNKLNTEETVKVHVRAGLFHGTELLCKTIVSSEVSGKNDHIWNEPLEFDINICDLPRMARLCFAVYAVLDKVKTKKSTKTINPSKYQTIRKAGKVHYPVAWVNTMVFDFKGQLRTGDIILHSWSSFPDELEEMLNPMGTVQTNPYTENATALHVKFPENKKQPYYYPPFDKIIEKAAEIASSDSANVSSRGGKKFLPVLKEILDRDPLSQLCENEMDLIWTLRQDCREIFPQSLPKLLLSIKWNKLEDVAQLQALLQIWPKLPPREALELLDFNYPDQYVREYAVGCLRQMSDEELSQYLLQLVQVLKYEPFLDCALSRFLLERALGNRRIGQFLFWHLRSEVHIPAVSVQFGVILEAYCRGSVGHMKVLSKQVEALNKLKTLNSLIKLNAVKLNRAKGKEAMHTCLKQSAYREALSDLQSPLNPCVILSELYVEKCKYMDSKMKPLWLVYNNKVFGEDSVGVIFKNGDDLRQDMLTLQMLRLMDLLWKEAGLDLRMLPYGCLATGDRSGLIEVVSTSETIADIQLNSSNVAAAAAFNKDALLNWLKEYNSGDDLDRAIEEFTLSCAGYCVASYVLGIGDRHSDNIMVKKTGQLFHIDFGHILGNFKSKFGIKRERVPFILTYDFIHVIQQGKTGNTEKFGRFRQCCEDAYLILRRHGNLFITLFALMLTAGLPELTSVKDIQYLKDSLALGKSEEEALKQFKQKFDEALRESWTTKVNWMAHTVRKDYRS
Entries and their pIC50
Scale explanation: pIC50 corresponds to minus log10 of a concentration expressed in moles per litre.

Q) Input Cc1nc(N)nc(-n2c(Nc3cccc(C(N)=O)c3)nc3ccccc32)n1 , output reported pIC50.
A) 5.99

Others:
Q) Input Cc1nc(N)nc(-n2c(Nc3ccn[nH]3)nc3cc(F)c(F)cc32)n1 , output reported pIC50.
A) 6.00

Q) Input Cc1nc(N)nc(-n2c(Nc3ccn[nH]3)nc3ccccc32)n1 , output reported pIC50.
A) 6.06

* * *

Entries and their IC50
Molecular target: Phosphatidylinositol 4,5-bisphosphate 3-kinase catalytic subunit alpha isoform (Homo sapiens)
Sequence (P42336 whole entry, canonical isoform): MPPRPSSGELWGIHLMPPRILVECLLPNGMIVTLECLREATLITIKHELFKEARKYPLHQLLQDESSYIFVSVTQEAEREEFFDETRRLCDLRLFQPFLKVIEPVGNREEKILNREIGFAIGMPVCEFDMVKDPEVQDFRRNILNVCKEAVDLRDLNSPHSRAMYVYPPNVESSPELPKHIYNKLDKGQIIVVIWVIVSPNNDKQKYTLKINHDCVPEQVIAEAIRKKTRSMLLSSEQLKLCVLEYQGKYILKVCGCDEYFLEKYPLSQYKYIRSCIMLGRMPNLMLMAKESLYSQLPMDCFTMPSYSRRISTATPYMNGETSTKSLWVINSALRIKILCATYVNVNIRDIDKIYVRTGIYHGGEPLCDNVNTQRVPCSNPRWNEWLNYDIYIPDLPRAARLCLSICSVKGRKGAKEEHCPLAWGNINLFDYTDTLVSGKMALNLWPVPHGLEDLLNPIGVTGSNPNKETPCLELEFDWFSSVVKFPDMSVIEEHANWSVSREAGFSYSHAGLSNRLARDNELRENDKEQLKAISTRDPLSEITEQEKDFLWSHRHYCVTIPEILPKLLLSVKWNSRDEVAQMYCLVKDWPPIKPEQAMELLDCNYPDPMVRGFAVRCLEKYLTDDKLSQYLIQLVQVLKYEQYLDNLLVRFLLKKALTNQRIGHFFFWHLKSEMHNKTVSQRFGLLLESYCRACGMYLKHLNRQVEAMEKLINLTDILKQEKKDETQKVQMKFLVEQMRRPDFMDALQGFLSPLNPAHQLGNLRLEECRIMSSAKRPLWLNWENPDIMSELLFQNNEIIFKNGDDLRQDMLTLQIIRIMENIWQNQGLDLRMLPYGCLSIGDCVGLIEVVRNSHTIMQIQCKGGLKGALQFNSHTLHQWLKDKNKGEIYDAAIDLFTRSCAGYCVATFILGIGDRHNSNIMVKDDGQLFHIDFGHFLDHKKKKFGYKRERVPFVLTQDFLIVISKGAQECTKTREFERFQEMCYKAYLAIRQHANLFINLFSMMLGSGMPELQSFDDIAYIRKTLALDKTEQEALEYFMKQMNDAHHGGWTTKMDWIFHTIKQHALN
Dear colleague, please return just the value in nM, with no unit written.

Recorded results for 3 compounds are shown here.
Q) Input Cc1nc(N)nc(-n2c(Nc3ccc4cn[nH]c4c3)nc3ccccc32)n1 , output reported IC50.
A) 200

Q) Input Cc1nc(N)nc(-n2c(Nc3ccon3)nc3ccccc32)n1 , output reported IC50.
A) 840

Q) Input Cc1nc(NCCC#N)nc(-n2c(Nc3cc[nH]n3)nc3ccccc32)n1 , output reported IC50.
A) 7700

Others:
Q) Input COc1nc(NCC#N)nc(-n2c(Nc3cccc(O)c3)nc3ccccc32)n1 , output reported IC50.
A) 520

* * *

Entries and their IC50
Biological target: Phosphatidylinositol 4,5-bisphosphate 3-kinase catalytic subunit delta isoform (Homo sapiens, UniProt O00329)
Sequence (O00329 whole entry, canonical isoform): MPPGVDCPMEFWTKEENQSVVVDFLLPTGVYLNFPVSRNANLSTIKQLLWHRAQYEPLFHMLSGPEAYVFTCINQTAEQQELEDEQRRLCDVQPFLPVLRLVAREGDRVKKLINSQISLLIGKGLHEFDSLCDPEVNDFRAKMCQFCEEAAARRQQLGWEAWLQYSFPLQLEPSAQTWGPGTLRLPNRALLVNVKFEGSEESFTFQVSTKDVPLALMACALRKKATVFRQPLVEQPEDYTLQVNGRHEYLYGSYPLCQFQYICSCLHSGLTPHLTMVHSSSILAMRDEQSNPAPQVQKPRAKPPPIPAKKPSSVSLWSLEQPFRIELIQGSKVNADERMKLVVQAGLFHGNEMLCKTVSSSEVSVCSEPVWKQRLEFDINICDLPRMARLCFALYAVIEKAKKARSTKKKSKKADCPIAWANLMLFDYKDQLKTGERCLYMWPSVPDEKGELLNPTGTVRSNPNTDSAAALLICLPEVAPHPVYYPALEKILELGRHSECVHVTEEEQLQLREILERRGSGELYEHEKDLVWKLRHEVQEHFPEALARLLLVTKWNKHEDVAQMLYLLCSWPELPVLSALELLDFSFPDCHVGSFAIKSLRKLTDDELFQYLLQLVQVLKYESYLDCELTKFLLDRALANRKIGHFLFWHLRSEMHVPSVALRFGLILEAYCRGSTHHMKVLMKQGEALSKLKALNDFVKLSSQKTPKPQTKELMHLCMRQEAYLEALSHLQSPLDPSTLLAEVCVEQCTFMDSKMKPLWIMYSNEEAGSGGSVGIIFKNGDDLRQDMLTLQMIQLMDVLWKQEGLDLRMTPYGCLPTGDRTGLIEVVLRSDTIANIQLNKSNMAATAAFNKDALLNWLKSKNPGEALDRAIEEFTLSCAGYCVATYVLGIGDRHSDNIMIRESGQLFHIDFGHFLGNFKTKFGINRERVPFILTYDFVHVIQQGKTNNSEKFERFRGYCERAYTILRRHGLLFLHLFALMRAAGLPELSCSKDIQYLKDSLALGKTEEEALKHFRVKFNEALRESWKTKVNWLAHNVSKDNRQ
Dear colleague, please return just the value in nM, with no unit written.

Recorded results for 2 compounds are shown here.
Q) Input CC(=O)Nc1ccc(Nc2nc3ccccc3n2-c2nc(C)nc(N)n2)cc1 , output reported IC50.
A) 71

Q) Input Cc1nc(N)nc(-n2c(Nc3cn[nH]c3)nc3ccccc32)n1 , output reported IC50.
A) 690

Could you now consider this next compound?
Q) Input Cc1nc(NCC#N)nc(-n2c(Nc3ccn[nH]3)nc3ccccc32)n1 , output reported IC50.
A) 4000

* * *

This document collects pIC50 values reported for Serine/threonine-protein kinase mTOR (Homo sapiens).
Scale explanation: pIC50 corresponds to minus log10 of a concentration expressed in moles per litre.

Recorded results for 3 compounds are shown here.
Q) Input Cc1nc(N)nc(-n2c(Nc3n[nH]c4ccccc34)nc3ccccc32)n1 , output reported pIC50.
A) 5.38

Q) Input CCc1nc(N)nc(-n2c(Nc3cccc(O)c3)nc3ccccc32)n1 , output reported pIC50.
A) 5.20

Q) Input Cc1nc(NCC#N)nc(-n2c(Nc3cccc(O)c3)nc3ccccc32)n1 , output reported pIC50.
A) 6.42

Others:
Q) Input Cc1nc(N)nc(-n2c(Nc3ccc4cc[nH]c4c3)nc3ccccc32)n1 , output reported pIC50.
A) 6.02

* * *

Target: Serine/threonine-protein kinase mTOR (Homo sapiens, UniProt P42345)
// classify: if (IC50 < 200 nM) yes (1) else no (0)

Q) Hi there! Is IC50 for COc1ncnc(-n2c(Nc3cccc(O)c3)nc3ccccc32)n1 below 200 nM, do you know?
A) no (0)

Q) Hi there! Is IC50 for Cc1nc(N)nc(-n2c(Nc3cccc(C(N)=O)c3)nc3ccccc32)n1 below 200 nM, do you know?
A) yes (1)

Q) Hi there! Is IC50 for Cc1nc(N)nc(-n2c(Nc3ccccc3)nc3ccccc32)n1 below 200 nM, do you know?
A) no (0)

Others:
Q) Hi there! Is IC50 for CCc1nc(N)nc(-n2c(Nc3cccc(O)c3)nc3ccccc32)n1 below 200 nM, do you know?
A) no (0)

Q) Hi there! Is IC50 for CC(=O)Nc1ccc(Nc2nc3ccccc3n2-c2nc(C)nc(N)n2)cc1 below 200 nM, do you know?
A) yes (1)

Q) Hi there! Is IC50 for Cc1nc(N)nc(-n2c(Nc3ccon3)nc3ccccc32)n1 below 200 nM, do you know?
A) yes (1)

* * *

Biological target: Serine/threonine-protein kinase mTOR (Homo sapiens, UniProt P42345)
Parameter class (string): assigned from measured IC50. Ranges: c1 = under 100 nM, c2 = from 100 nM up to 600 nM, c3 = 600 nM and over

Q) Category of COc1nc(NCC#N)nc(-n2c(Nc3cccc(O)c3)nc3ccccc32)n1 , please.
A) c3

Q) Category of Cc1nc(N)nc(-n2c(Nc3cc(O)cc(O)c3)nc3ccccc32)n1 , please.
A) c1

Q) Category of Cc1nc(N)nc(-n2c(Nc3cccc(C(N)=O)c3)nc3ccccc32)n1 , please.
A) c2

Others:
Q) Category of Cc1nc(N)nc(-n2c(NC3CCOCC3)nc3ccccc32)n1 , please.
A) c3

Q) Category of Cc1nc(N)nc(-n2c(Nc3ccn[nH]3)nc3ccccc32)n1 , please.
A) c1

Q) Category of Cc1nc(N)nc(-n2c(Nc3ccc4cn[nH]c4c3)nc3ccccc32)n1 , please.
A) c2

Q) Category of CNC(=O)Nc1ccc(Nc2nc3ccccc3n2-c2nc(C)nc(N)n2)cc1 , please.
A) c1

Q) Category of Nc1ncnc(-n2c(Nc3cccc(O)c3)nc3ccccc32)n1 , please.
A) c1

Q) Category of Cc1nc(N)nc(-n2c(Nc3cccc(O)c3)nc3ccccc32)n1 , please.
A) c1

Q) Category of Cc1nc(N)nc(-n2c(Nc3ccn(C(F)F)n3)nc3ccccc32)n1 , please.
A) c3

Q) Category of Oc1cccc(Nc2nc3ccccc3n2-c2ncnc(NCc3ccccn3)n2)c1 , please.
A) c3

Q) Category of COc1ncnc(-n2c(Nc3cccc(O)c3)nc3ccccc32)n1 , please.
A) c3

Q) Category of CC(=O)Nc1cccc(Nc2nc3ccccc3n2-c2nc(C)nc(N)n2)c1 , please.
A) c2

Q) Category of CCc1nc(N)nc(-n2c(Nc3cccc(O)c3)nc3ccccc32)n1 , please.
A) c2

Q) Category of Oc1cccc(Nc2nc3ccccc3n2-c2ncnc(NCC(F)(F)F)n2)c1 , please.
A) c3

Q) Category of Cc1nc(N)nc(-n2c(Nc3ccn(C)n3)nc3ccccc32)n1 , please.
A) c2

Q) Category of Cc1nc(N)nc(-n2c(Nc3n[nH]c4ccccc34)nc3ccccc32)n1 , please.
A) c2

Q) Category of Oc1cccc(Nc2nc3ccccc3n2-c2ncnc(Nc3ccccc3)n2)c1 , please.
A) c3

* * *

Target: Serine/threonine-protein kinase mTOR (Homo sapiens, UniProt P42345)
Entries and their pIC50
Scale explanation: pIC50 corresponds to minus log10 of a concentration expressed in moles per litre.

Recorded results for 5 compounds are shown here.
Q) Quote pIC50 with test system Serine/threonine-protein kinase mTOR (Homo sapiens, UniProt P42345) for Nc1ncnc(-n2c(Nc3cccc(O)c3)nc3ccccc32)n1
A) 7.68

Q) Quote pIC50 with test system Serine/threonine-protein kinase mTOR (Homo sapiens, UniProt P42345) for Cc1nc(N)nc(-n2c(Nc3ccn[nH]3)nc3cc(F)c(F)cc32)n1
A) 7.62

Q) Quote pIC50 with test system Serine/threonine-protein kinase mTOR (Homo sapiens, UniProt P42345) for CNC(=O)Nc1ccc(Nc2nc3ccccc3n2-c2nc(C)nc(N)n2)cc1
A) 8.70

Q) Quote pIC50 with test system Serine/threonine-protein kinase mTOR (Homo sapiens, UniProt P42345) for Cc1nc(NCC#N)nc(-n2c(Nc3cccc(O)c3)nc3ccccc32)n1
A) 8.10

Q) Quote pIC50 with test system Serine/threonine-protein kinase mTOR (Homo sapiens, UniProt P42345) for CCCc1nc(N)nc(-n2c(Nc3cccc(O)c3)nc3ccccc32)n1
A) 5.33

Others:
Q) Quote pIC50 with test system Serine/threonine-protein kinase mTOR (Homo sapiens, UniProt P42345) for CNC(=O)c1ccc(Nc2nc3ccccc3n2-c2nc(C)nc(N)n2)o1
A) 6.82

Q) Quote pIC50 with test system Serine/threonine-protein kinase mTOR (Homo sapiens, UniProt P42345) for Cc1nc(N)nc(-n2c(Nc3cn[nH]c3)nc3ccccc32)n1
A) 6.72

Q) Quote pIC50 with test system Serine/threonine-protein kinase mTOR (Homo sapiens, UniProt P42345) for Cc1nccc(-n2c(Nc3cccc(O)c3)nc3ccccc32)n1
A) 6.43

Q) Quote pIC50 with test system Serine/threonine-protein kinase mTOR (Homo sapiens, UniProt P42345) for Cc1nc(NCCC#N)nc(-n2c(Nc3cc[nH]n3)nc3ccccc32)n1
A) 7.22

Q) Quote pIC50 with test system Serine/threonine-protein kinase mTOR (Homo sapiens, UniProt P42345) for Cc1nc(N)cc(-n2c(Nc3cccc(O)c3)nc3ccccc32)n1
A) 7.06

Q) Quote pIC50 with test system Serine/threonine-protein kinase mTOR (Homo sapiens, UniProt P42345) for Oc1cccc(Nc2nc3ccccc3n2-c2ncncn2)c1
A) 5.52

Q) Quote pIC50 with test system Serine/threonine-protein kinase mTOR (Homo sapiens, UniProt P42345) for Cc1nc(N)nc(-n2c(Nc3cccc(O)c3)nc3ccccc32)n1
A) 8.15

Q) Quote pIC50 with test system Serine/threonine-protein kinase mTOR (Homo sapiens, UniProt P42345) for Cc1nc(N)nc(-n2c(Nc3n[nH]c4ccccc34)nc3ccccc32)n1
A) 7.22

Q) Quote pIC50 with test system Serine/threonine-protein kinase mTOR (Homo sapiens, UniProt P42345) for Cc1nc(N)nc(-n2c(Nc3ccc4cc[nH]c4c3)nc3ccccc32)n1
A) 7.55

Q) Quote pIC50 with test system Serine/threonine-protein kinase mTOR (Homo sapiens, UniProt P42345) for CNc1ncnc(-n2c(Nc3cccc(O)c3)nc3ccccc32)n1
A) 6.60

Q) Quote pIC50 with test system Serine/threonine-protein kinase mTOR (Homo sapiens, UniProt P42345) for Cc1nc(N)nc(-n2c(Nc3ccn(C)n3)nc3ccccc32)n1
A) 6.57

Q) Quote pIC50 with test system Serine/threonine-protein kinase mTOR (Homo sapiens, UniProt P42345) for Oc1cccc(Nc2nc3ccccc3n2-c2ncnc(NCc3ccccn3)n2)c1
A) 4.68

Q) Quote pIC50 with test system Serine/threonine-protein kinase mTOR (Homo sapiens, UniProt P42345) for CNc1nc(C)nc(-n2c(Nc3cc[nH]n3)nc3ccccc32)n1
A) 7.09

Q) Quote pIC50 with test system Serine/threonine-protein kinase mTOR (Homo sapiens, UniProt P42345) for Nc1cc(-n2c(Nc3cccc(O)c3)nc3ccccc32)ncn1
A) 6.96

Q) Quote pIC50 with test system Serine/threonine-protein kinase mTOR (Homo sapiens, UniProt P42345) for Cc1nc(N)nc(-n2c(NC3CCOCC3)nc3ccccc32)n1
A) 4.67

Q) Quote pIC50 with test system Serine/threonine-protein kinase mTOR (Homo sapiens, UniProt P42345) for Oc1cccc(Nc2nc3ccccc3n2-c2ncnc(Nc3ccccc3)n2)c1
A) 5.64
